Test system: CCRF-CEM
test: Tumor cell proliferation inhibition (CellTiter-Meiluncell Luminescent Cell Viability Assay), CCRF-CEM
condition details: Homo sapiens, read-out: Inhibition rate (%) at 10 nM
outcome measure: inhibition at 0.01 µM

compound	inhibition at 0.01 µM
Nc1cccc2c1CN(C1CCC(=O)NC1=O)C2=O (stereo not shown) [lenalidomide, reference compound]	10 to 15%

## Input Name the recorded inhibition at 0.01 µM for O=C1CCC(N2C(=O)c3ccc(CN4CCN(c5nc(N6CCCCC6)nc6c5SCC6)CC4)cc3C2=O)C(=O)N1 (stereo not shown) .
## Output 20 to 30%

## Input Queued: O=C1CCC(N2C(=O)c3ccc(CN4CC(=C5CCOc6cc(F)ccc65)C4)cc3C2=O)C(=O)N1 (stereo not shown)
## Output 15 to 20%

## Input What would you report for O=C1CCC(N2C(=O)c3ccc(CN4CC=C(c5cccc(Cl)c5Cl)CC4)cc3C2=O)C(=O)N1 (stereo not shown) ?
## Output 20 to 30%
